test system: PBMC (polyclonal gluten-specific T cells) of paediatric and adult CD patients; experiment: IFN-γ ELISpot of PBMC after 3 day oral wheat challenge (SFU, % of maximal peptide response, dominance scores, EC50; Examples 5-6); type: cell-based, human; conditions: children with celiac disease 11-18 yrs after wheat challenge (Table 14)
experimental readout: Dominance scores 11-18 yrs
// return just the number, without any unit appended

INSERT INTO assay_data (substance, target_entity, measurement) VALUES
  ('LQPFPQPELPFPQP [Peptide W06]', 'PBMC (polyclonal gluten-specific T cells) of paediatric and adult CD patients', 54);

Task item: Requested read-out: Dominance scores 11-18 yrs. Entry: QPFPQPQQPIPVQ [Peptide W04]
Reply: 48

Task item: Let us now turn to W05 (QPFPQPEQPFSQQ) [Peptide W05]
Reply: 27

Task item: Similarly, W16 (FPQPEQEFPQPQQ) [Peptide W16] ?
Reply: 26

Task item: Queued: W13 (LQPFPQPELPYLQP) [Peptide W13]
Reply: 30

Task item: Then W07 (QPFPQPEQPFCQQ) [Peptide W07] ?
Reply: 16

Task item: Do the same for W26 (PFPLQPEQPFPQP) [Peptide W26] please
Reply: 35
